system: primary mouse cortical neurons; construct: primary cortical neurons, DIV 10; test: cells; parameters: Protection from NMDA-induced (30 uM, 10 min) neuronal death; Hoechst nuclear morphology by automated microscopy; settings: Cortical neurone, 20 h, read-out: % inhibition, inhibition of NMDA-induced cell death (protection score), 30 min pre-treatment
value_type: inhibition at 10 µM (%)
Record the value in %, omitting the unit from your answer.

[ask] // returns reported inhibition at 10 µM for input Cc1cn(-c2cc(NC(=O)c3ccc(C)c(Nc4nccc(-c5cccnc5)n4)c3)cc(C(F)(F)F)c2)cn1
[reply] -7.37

[ask] Same lookup for Cc1ccccc1N1C(=O)c2cc(S(N)(=O)=O)c(Cl)cc2NC1C (stereo not shown) [Metolazone (Zaroxolyn)] , please.
[reply] 27.9

[ask] And COc1ccccc1OCC(O)CO (stereo not shown) ?
[reply] 13.1

[ask] Moving on to COc1cc2c(cc1OC)[C@@H]1Cc3ccc(OC)c(OC)c3CN1CC2
[reply] -0.337

###

Please provide measured inhibition at 10 µM for the entries that follow.
test system: primary mouse cortical neurons; construct: primary cortical neurons, DIV 10; experiment: cells; set-up: Protection from NMDA-induced (30 uM, 10 min) neuronal death; Hoechst nuclear morphology by automated microscopy; settings: Cortical neurone, 20 h, read-out: % inhibition, inhibition of NMDA-induced cell death (protection score), 30 min pre-treatment
Where a name gives a salt, the structure may show the parent alone.
Numeric answer only, unit % assumed.

[ask] Entry N#Cc1ccc(C(c2ccc(C#N)cc2)n2cncn2)cc1 has what inhibition at 10 µM?
[reply] 0.34

[ask] What do we get for Cc1cccc(C)c1NC(=O)CN1CCCC1=O [Nefiracetam (Translon)] ?
[reply] 7.17

[ask] For NC(=O)CC[C@H](N)C(=O)O then?
[reply] -2.01

[ask] Likewise for O=C1Cc2cc(CCN3CCN(c4nsc5ccccc45)CC3)c(Cl)cc2N1 [Ziprasidone hydrochloride] ?
[reply] 8.38

[ask] Field entry: NC(=O)c1cnccn1 [Pyrazinamide (Pyrazinoic acid amide)]
[reply] 15.2

[ask] Could you do the same for CCN(CC)CCOc1ccc(C(=C(Cl)c2ccccc2)c2ccccc2)cc1 [Clomifene citrate (Serophene)] , please?
[reply] -1.18

[ask] Next: CN1CCCC(n2nc(Cc3ccc(Cl)cc3)c3ccccc3c2=O)CC1 (stereo not drawn) [Azelastine hydrochloride (Astelin)]
[reply] -2.32

[ask] // query: C[C@H]1[C@H](OC(=O)CCC(=O)O)O[C@@H]2O[C@@]3(C)CC[C@H]4[C@H](C)CC[C@@H]1[C@@]24OO3 [Artesunate]
[reply] -3.35

[ask] Another: CN1CC(=O)N2[C@H](c3ccc4c(c3)OCO4)c3[nH]c4ccccc4c3C[C@@H]2C1=O
[reply] 0.202

[ask] Query Nc1ncnc2c1ncn2[C@@H]1O[C@H](CO)[C@@H](O)[C@@H]1O next
[reply] 20.1

[ask] Quick one: COc1ccc([C@@H]2CC(=O)c3c(O)cc(O[C@@H]4O[C@H](CO[C@@H]5O[C@@H](C)[C@H](O)[C@@H](O)[C@H]5O)[C@@H](O)[C@H](O)[C@H]4O)cc3O2)cc1O
[reply] -3.55

[ask] Same read-out for O=C1C[C@@H](c2ccc(O)cc2)Oc2cc(O)cc(O)c21 ?
[reply] -3.44

[ask] Next up: OCCN(CCO)c1nc(N2CCCCC2)c2nc(N(CCO)CCO)nc(N3CCCCC3)c2n1 [Dipyridamole (Persantine)]
[reply] -3.58

[ask] Ok, now O=C1c2c(O)cc(O)cc2O[C@H](c2cc(O)c(O)c(O)c2)[C@H]1O [Dihydromyricetin (Ampeloptin)]
[reply] 21.4

[ask] Follow-up entry: O=c1c(O)c(-c2ccc(O)cc2O)oc2cc(O)cc(O)c12 [Morin hydrate (Aurantica)]
[reply] -2.71

[ask] Check NC[C@@H]1O[C@H](O[C@H]2[C@@H](O)[C@H](O[C@@H]3[C@@H](O)[C@H](N)C[C@H](N)[C@H]3O[C@H]3O[C@H](CN)[C@@H](O)[C@H](O)[C@H]3N)O[C@@H]2CO)[C@H](N)[C@@H](O)[C@@H]1O [Neomycin sulfate] too.
[reply] -1.47

[ask] Now the molecule N=c1ccn2c(n1)O[C@H]1[C@H](O)[C@@H](CO)O[C@H]12 [Cyclocytidine HCl]
[reply] -2.19

[ask] Then this molecule: C[C@]12C=CC(=O)C=C1CC[C@@H]1[C@@H]2C(=O)C[C@@]2(C)[C@H]1CC[C@]2(O)C(=O)CO
[reply] 28.4

[ask] Also, C[C@@H]1O[C@@H](Oc2c(-c3cc(O)c(O)c(O)c3)oc3cc(O)cc(O)c3c2=O)[C@H](O)[C@H](O)[C@H]1O please.
[reply] -2.22

[ask] Note, next up: C[C@H](CCC(=O)O)[C@H]1CC[C@H]2[C@@H]3[C@@H](O)C[C@@H]4C[C@H](O)CC[C@]4(C)[C@H]3CC[C@]12C
[reply] 35.3

[ask] Field entry: Cc1cn([C@@H]2C[C@@H](O)[C@H](CO)O2)c(=O)[nH]c1=O [Telbivudine (Sebivo, Tyzeka)]
[reply] 23.8

[ask] Same for COC(=O)Nc1nc2cc(Sc3ccccc3)ccc2[nH]1
[reply] -8.52

[ask] Same for Cc1nnc(C(C)C)n1[C@@H]1C[C@H]2CC[C@@H](C1)N2CC[C@H](NC(=O)C1CCC(F)(F)CC1)c1ccccc1
[reply] 2.4

[ask] What do you get for C[C@H]1COC2=C1C(=O)C(=O)c1c2ccc2c1CCCC2(C)C ?
[reply] -2.15

[ask] Same again, this time with Cc1cnc(C(=O)NCCc2ccc(S(=O)(=O)NC(=O)NC3CCCCC3)cc2)cn1 [Glipizide (Glucotrol)]
[reply] 9.36

[ask] Input Cc1ccnc2c1NC(=O)c1cccnc1N2C1CC1
[reply] 9.64

[ask] Try this molecule too: Cc1noc(NS(=O)(=O)c2ccc(N)cc2)c1C
[reply] -0.221

[ask] Thanks! And O=c1[nH]cnc2c1ncn2[C@H]1CC[C@@H](CO)O1 ?
[reply] 11.6

[ask] Then what about the molecule O=c1c2ccccc2oc2ccccc12 [Xanthone (Genicide)] ?
[reply] 7.85

[ask] Also CC1(C)O[C@@H]2C[C@H]3[C@@H]4CCC5=CC(=O)C=C[C@]5(C)[C@@]4(F)[C@@H](O)C[C@]3(C)[C@]2(C(=O)CO)O1 [Triamcinolone acetonide] ?
[reply] 59.8

###

So I've got a bunch of molecules here, and I need their inhibition at 10 µM values.
test system: primary mouse cortical neurons; construct: primary cortical neurons, DIV 10; assay: cells; design: Protection from NMDA-induced (30 uM, 10 min) neuronal death; Hoechst nuclear morphology by automated microscopy; details: Cortical neurone, 20 h, read-out: % inhibition, inhibition of NMDA-induced cell death (protection score), 30 min pre-treatment
State just the number; it will be interpreted in %.

[ask] Requested read-out: inhibition at 10 µM. Entry: COc1cnc(NS(=O)(=O)c2ccc(N)cc2)nc1
[reply] 28.2

[ask] Entry C=C[C@H]1CN2CC[C@H]1C[C@H]2[C@H](O)c1ccnc2ccccc12 please
[reply] -3.04

[ask] What do you have for CC[C@@]1(O)C(=O)OCc2c1cc1n(c2=O)Cc2cc3ccccc3nc2-1 ?
[reply] -13.4

[ask] Check COc1cc([C@H]2Oc3cc([C@H]4Oc5cc(O)cc(O)c5C(=O)[C@@H]4O)ccc3O[C@@H]2CO)ccc1O [Silibinin (Silybin)] too.
[reply] 8.03

[ask] What about OCc1c[nH]c2ccccc12 ?
[reply] -2.03

[ask] Also, CO[C@H]1C[C@@H]2CC[C@@H](C)[C@@](O)(O2)C(=O)C(=O)N2CCCC[C@H]2C(=O)O[C@H]([C@H](C)C[C@@H]2CC[C@@H](OC(=O)C(C)(CO)CO)[C@H](OC)C2)CC(=O)[C@H](C)/C=C(\C)[C@@H](O)[C@@H](OC)C(=O)[C@H](C)C[C@H](C)/C=C/C=C/C=C/1C please.
[reply] 1.56

[ask] Please give the result for COc1ccc2cccc(CCNC(C)=O)c2c1 too.
[reply] -12.7

###

test system: primary mouse cortical neurons; construct: primary cortical neurons, DIV 10; test: cells; design: Protection from NMDA-induced (30 uM, 10 min) neuronal death; Hoechst nuclear morphology by automated microscopy; settings: Cortical neurone, 20 h, read-out: % inhibition, inhibition of NMDA-induced cell death (protection score), 30 min pre-treatment
Counter-ions that a name gives are not always drawn.
value_type: inhibition at 10 µM
Reply with a number, then the unit it belongs to.

[ask] Please report the recorded inhibition at 10 µM for COc1cc(C(C)=O)ccc1OCCCN1CCC(c2noc3cc(F)ccc23)CC1 .
[reply] 21.7%

[ask] For CNCC(O)c1ccc(O)cc1 (stereo not drawn) [Synephrine (Oxedrine)] then?
[reply] 3.83%

[ask] How about CCCc1nc2c(C)cc(-c3nc4ccccc4n3C)cc2n1Cc1ccc(-c2ccccc2C(=O)O)cc1 ?
[reply] 0.71%

[ask] Also check CCC(C)(C)c1ccc(CC(C)CN2C[C@@H](C)O[C@@H](C)C2)cc1 (stereo partly drawn) [Amorolfine Hydrochloride]
[reply] -45.8%

[ask] Another molecule to look at: COc1cc(C(C)=O)ccc1O
[reply] -0.991%

[ask] What about Nc1cccc2c1CN(C1CCC(=O)NC1=O)C2=O (stereo not drawn) [Lenalidomide] ?
[reply] -2.36%

[ask] Try this molecule too: C[C@H](CCC(=O)O)[C@H]1CC[C@H]2[C@@H]3C[C@H](O)[C@@H]4C[C@H](O)CC[C@]4(C)[C@H]3CC[C@]12C
[reply] -3.21%

[ask] Input COC(=O)[C@H]1[C@H]2C[C@@H]3c4[nH]c5cc(OC)ccc5c4CCN3C[C@H]2C[C@@H](OC(=O)c2cc(OC)c(OC)c(OC)c2)[C@@H]1OC
[reply] 24%

[ask] Next record, please: Oc1c(Cl)cc(Cl)c2cccnc12
[reply] -4.86%

[ask] Input CCCCC(=O)N(Cc1ccc(-c2ccccc2-c2nn[nH]n2)cc1)[C@H](C(=O)O)C(C)C
[reply] -0.714%

[ask] Another: Cn1cnc2c1c(=O)[nH]c(=O)n2C
[reply] 0.993%

[ask] Then this molecule: CCCCNc1ccc(C(=O)OCCN(C)C)cc1 [Tetracaine hydrochloride (Pontocaine)]
[reply] -0.577%

[ask] Cool, now CC(NC(C)(C)C)C(=O)c1cccc(Cl)c1 (stereo not drawn)
[reply] 2.08%

[ask] What do you have for COc1ccc(-c2cc(=O)c3c(O)cc(O[C@@H]4O[C@H](CO[C@@H]5O[C@@H](C)[C@H](O)[C@@H](O)[C@H]5O)[C@@H](O)[C@H](O)[C@H]4O)cc3o2)cc1O ?
[reply] -0.0881%

[ask] Now consider O=C(O)CCCc1c[nH]c2ccccc12 .
[reply] -1.77%

[ask] What do we get for CN1C(C(=O)Nc2ccccn2)=C(O)c2ccccc2S1(=O)=O ?
[reply] 4.8%

[ask] Same read-out for CC(C)(C)NC(=O)[C@H]1CC[C@H]2[C@@H]3CC[C@H]4NC(=O)C=C[C@]4(C)[C@H]3CC[C@]12C [Finasteride] ?
[reply] 59.6%

[ask] // repeat for O=c1cc(-c2ccc(O)c(O)c2)oc2cc(O)cc(O)c12 and report
[reply] -2.28%

[ask] Item: C[C@@H]1O[C@@H](O[C@H]2[C@H](Oc3cc(O)c4c(c3)O[C@H](c3ccc(O)cc3)CC4=O)O[C@H](CO)[C@@H](O)[C@@H]2O)[C@H](O)[C@H](O)[C@H]1O [Naringin (Naringoside)]
[reply] -0.553%

[ask] Do the same for COC(=O)N[C@H](C(=O)N[C@@H](Cc1ccccc1)[C@@H](O)CN(Cc1ccc(-c2ccccn2)cc1)NC(=O)[C@@H](NC(=O)OC)C(C)(C)C)C(C)(C)C [Atazanavir sulfate] please
[reply] 2.12%

[ask] Then what about the molecule C[C@@](Cc1ccc(O)c(O)c1)(NN)C(=O)O ?
[reply] -2.32%

[ask] Now the molecule C[C@]12C=CC(=O)N[C@@H]1CC[C@@H]1[C@@H]2CC[C@]2(C)[C@@H](C(=O)Nc3cc(C(F)(F)F)ccc3C(F)(F)F)CC[C@@H]12 [Dutasteride]
[reply] 113%

[ask] Now try Cc1[nH]c(=O)c(C#N)cc1-c1ccncc1 .
[reply] -10.4%

[ask] Would you kindly repeat that for C[C@@H](NCCc1ccc(O)cc1)[C@@H](O)c1ccc(O)cc1 (racemic) [Ritodrine hydrochloride (Yutopar)] ?
[reply] 3.89%

[ask] // same read-out, input: CCCCNc1cc(C(=O)O)cc(S(N)(=O)=O)c1Oc1ccccc1 [Bumetanide]
[reply] -2.16%

[ask] Field entry: Cc1oncc1C(=O)Nc1ccc(C(F)(F)F)cc1 [Leflunomide]
[reply] 15.6%

[ask] Item: CC[C@H](/C=C/[C@@H](C)[C@H]1CC[C@H]2[C@@H]3CC=C4C[C@@H](O)CC[C@]4(C)[C@H]3CC[C@]12C)C(C)C [Stigmasterol (Stigmasterin)]
[reply] 4.26%

[ask] Continue with O=C(O)C[C@H](O)C[C@H](O)/C=C/c1c(C2CC2)nc2ccccc2c1-c1ccc(F)cc1
[reply] 17.7%

[ask] Same read-out for Nc1ncnc2c1ncn2[C@@H]1O[C@H](CO)[C@@H](O)[C@H]1O ?
[reply] 15.3%

[ask] Let us now turn to Cn1c(=O)c2[nH]cnc2n(C)c1=O
[reply] 12%

Provenance of the data: paper PMC7489219
